Test system: Dextran-induced edema formation in the ears of mice
Assay: Inhibition of Dextran-induced edema formation in the ears of mice
Type: in vivo, male Swiss mice
Conditions: Mus musculus, po, Column B, at 10 mg/kg body weight, 1 h before dextran, read-out: inhibition of Dextran-induced blueing of the ears of mice, % inhibition
Property: inhibition in vivo at 10 mg/kg; scope: individual compounds
Write the value in % as a bare number.

Sample records with inhibition in vivo at 10 mg/kg:
CCCN1C(=O)N(c2ccc(N3CCN(c4ccc(O)cc4)CC3)cc2)C(C)(C)C1=O : 89
CC(C(=O)c1ccc(Cl)cc1)n1ncn(-c2ccc(N3CCN(c4ccc(O)cc4)CC3)cc2)c1=O (centres unmarked) : 97
CCN(C1=NC(C(C)C)CS1)c1ccc(N2CCN(c3ccc(O)cc3)CC2)cc1 (centres unmarked) : 74
CC(=O)C(C)N1C(=O)N(c2ccc(N3CCN(c4ccc(O)cc4)CC3)cc2)C(=O)C1(C)C (centres unmarked) : 76
CCC(C)n1nc(C)n(-c2ccc(N3CCN(c4ccc(O)cc4)CC3)cc2)c1=O (centres unmarked) : 87
CCCCN1CCCSC1=Nc1ccc(N2CCN(c3ccc(O)cc3)CC2)cc1 : 71

Task item: Report inhibition in vivo at 10 mg/kg for O=C1CCCCC1n1ncn(-c2ccc(N3CCN(c4ccc(O)cc4)CC3)cc2)c1=O (centres unmarked) tested on Dextran-induced edema formation in the ears of mice.
Reply: 87

Task item: And for Cn1c(=O)n(C)c(=O)n(-c2ccc(N3CCN(c4ccc(O)cc4)CC3)cc2)c1=O ?
Reply: 83
